pIC50: −log10 of the molar value.
Assembled from different publications: pIC50 for Protein arginine N-methyltransferase 5 (Homo sapiens, UniProt O14744).

Observe how each entry below is paired with its result.
Input: What pIC50 appears in the records for this molecule with Protein arginine N-methyltransferase 5 (Homo sapiens, UniProt O14744)? Cc1nc(N)c2ccn([C@@H]3C=C(CCc4cc(F)c5cc(Cl)c(N)nc5c4)[C@@H](O)[C@H]3O)c2n1
Output: 9.12 to 9.40

Input: What pIC50 appears in the records for this molecule with Protein arginine N-methyltransferase 5 (Homo sapiens, UniProt O14744)? Nc1nc2cc([C@H]3C[C@@]4(CO3)C[C@@H](n3ccc5cncnc53)[C@H](O)[C@@H]4O)ccc2cc1Br
Output: ≥ 7.00

Input: What pIC50 appears in the records for this molecule with Protein arginine N-methyltransferase 5 (Homo sapiens, UniProt O14744)? Nc1nc2cc(C3C[C@@]4(CO3)C[C@@H](n3ccc5c(N)ncnc53)[C@H](O)[C@@H]4O)ccc2cc1Br (single isomer, unassigned)
Output: ≥ 7.00

Input: What pIC50 appears in the records for this molecule with Protein arginine N-methyltransferase 5 (Homo sapiens, UniProt O14744)? Nc1nc2ccc(C[C@H]3C[C@@]4(C[C@@H](n5ccc6c(N)ncnc65)[C@H](O)[C@@H]4O)C3)cc2s1
Output: 6.53

Input: What pIC50 appears in the records for this molecule with Protein arginine N-methyltransferase 5 (Homo sapiens, UniProt O14744)? Cn1ccc(-c2cn(-c3cncc(COc4ccc5ccc(N6CC(O)C6)nc5c4)c3)c3ncnc(N)c23)n1
Output: < 6.00

Input: What pIC50 appears in the records for this molecule with Protein arginine N-methyltransferase 5 (Homo sapiens, UniProt O14744)? CC1(C)CNc2nc3cc(CC[C@H]4O[C@@H](n5ccc6c(N)ncnc65)[C@H](O)[C@@H]4O)ccc3cc21
Output: 7.00 to 9.00

Consider the additional molecule presented here.
Input: What pIC50 appears in the records for this molecule with Protein arginine N-methyltransferase 5 (Homo sapiens, UniProt O14744)? Cn1ccc(-c2cn(-c3cncc(C[S+]([O-])c4ccc5ccc(N6CCC6)nc5c4)c3)c3ncnc(N)c23)n1 (stereo not shown)
Output: 6.00 to 7.00
